B1: CLPTM1 (parent)
chain: LGCYAVYSLLYLEHKGWYSWVLSM

Variants of: B1
Test: protein stability index of a GFP-peptide fusion (GPS, HEK-293T) (PSI 1-6); higher = more stable;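 also: lentivirally expressed fusions sorted by FACS into six bins by GFP to DsRed ratio, PSI derived from sequencing read proportions per bin multiplied by bin number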
Conditions: c terminus: a fixed tail appended
This listing pairs variants with measured protein stability index.

Reference set, count: 3
{"mutation string": "Y18H", "attribute measured": "protein stability index", "value": 2.44}
{"mutation string": "L12S", "attribute measured": "protein stability index", "value": 2.02}
{"mutation string": "W20I", "attribute measured": "protein stability index", "value": 3.33}

Task: What value of protein stability index has been reported for the following variant? `Y4K`
Output: 3.58

Task: What value of protein stability index has been reported for the following variant? `A5F`
Output: 3.69

Task: What value of protein stability index has been reported for the following variant? `L22C`
Output: 4.24

Task: What value of protein stability index has been reported for the following variant? `L10I`
Output: 3.43

Task: What value of protein stability index has been reported for the following variant? `S19K`
Output: 3.27
